Attribution: paper PMC4222680

# Target or test system: TDG WT (human) (UniProt Q13569)
# Sequence (Q13569 whole entry): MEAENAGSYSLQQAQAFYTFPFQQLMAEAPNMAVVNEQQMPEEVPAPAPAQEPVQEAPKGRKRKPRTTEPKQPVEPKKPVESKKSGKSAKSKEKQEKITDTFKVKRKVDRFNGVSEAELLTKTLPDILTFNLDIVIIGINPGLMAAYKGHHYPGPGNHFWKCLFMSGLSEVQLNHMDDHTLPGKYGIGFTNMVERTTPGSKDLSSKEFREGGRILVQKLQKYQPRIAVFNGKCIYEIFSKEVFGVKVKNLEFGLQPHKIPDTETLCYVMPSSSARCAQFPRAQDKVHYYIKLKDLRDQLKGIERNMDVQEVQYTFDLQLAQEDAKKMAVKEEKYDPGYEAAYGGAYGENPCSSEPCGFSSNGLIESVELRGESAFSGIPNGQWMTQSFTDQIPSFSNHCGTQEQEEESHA
# Protocol summary: EMSA
# Settings: tetrahydrofuran abasic analog (X, written N) at position 17 of strand 2, opposite A12 of strand 1; 20 mM HEPES pH 7.3, 1 mM EDTA, 10 mM (NH4)2SO4, 1 mM DTT, 0.2% Tween-20, 30 mM KCl; 2 nM DNA, 30 min at room temperature; 6% native PAGE at 4 C
pKd: −log10 of the molar value.
Readout kind: pKd

1. CAGCTCTGTACATGAGCAGTGGTGACAC / GTGTCACCACTGCTCANGTACAGAGCTG [28-mer THF:A]: 6.82

---

# Target or test system: TDG G199S G199S (human (rs4135113 variant))
# Protocol summary: EMSA
# Settings: tetrahydrofuran abasic analog (X, written N) at position 17 of strand 2, opposite A12 of strand 1; 20 mM HEPES pH 7.3, 1 mM EDTA, 10 mM (NH4)2SO4, 1 mM DTT, 0.2% Tween-20, 30 mM KCl; 2 nM DNA, 30 min at room temperature; 6% native PAGE at 4 C
Readout kind: Kd (nM)

1. CAGCTCTGTACATGAGCAGTGGTGACAC / GTGTCACCACTGCTCANGTACAGAGCTG [28-mer THF:A]: 35
